Test system: PPARg:RXRa DBDmut IVT, anti-RXR (DBD mutation: RXRa K156A/R161A, NR concentration 270 nM, RXRa partner concentration 90 nM)
testDetails: PBM binding z-score (relative to random genomic background probes); higher = stronger binding; sequences stand for … in GC…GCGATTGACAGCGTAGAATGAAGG
For each of the sequences below, state its PBM binding z-score.
// response body must contain only the number

# input sequence: "CCTAGTTGTTCAGGAGGTCACACACCGGATATGA" ; wanted: its PBM binding z-score
0.958

// repeat for "CAAACGAGGTCACAGAGGTCAAAGTCCGTGCGTA" and report
6.82

Try this sequence next: "CGTCAAAGTTCAACTAAGGTCACGTAAAGCACGC"
1.14

Another: "CCTTAGGGGTCACTGACAGGTTATAGCATTTGGA"
4.82

One more sequence: "ATATGTAGGTTACATCCGGGTCATCCAGGCTATG"
7.32

Same again, this time with "AGTCAAAGTTTATCTAGGTAACGTAAGATATGCT"
2.68

Now consider "CCTACTGGGCCATTCAGAGGTCAATGATCATATG" .
4.08

Same again, this time with "AATACGGGGTCATCGTAGGCCAGAGTACGCACAG"
4.48

Record: "CGTCAAAGTTCAACTGAGGTAACGTAAAGCACGC"
0.26

And "TATCAAAGTTCAAAGGTAACGTAAGTATCCACAC" ?
0.181

Next up: "ATATGTAGGTTAAGCGTCATTCAGGTTGGTTCGC"
7.13

Next sequence: "CGTCAAAGGTCAACTAAGGTAACGTAAAGCACGC"
5.01

What do we get for "TAGCCTAGTTCATGCGGGCCAGTATAGTGTCGGC" ?
0.864

What about "CAAACGAGGTCACGAAAGGTCAAAGTCGAATGAC" ?
6.75

Repeat for the following sequence: "AGAATGGGGTTATACGTAGATCAGGGAAGAAAGT"
4.84

Now the same for "GGAACGAGGTCATTCGAGTTGATAGCATGGCGAT"
5.42

How about "CCTACTGGGCCACGAAAGGCCATTGATTCAGTGA" ?
5.23

Same for "AATACAGGGTCATCTTAGGCCAGAGTACGCACAG"
2.7

Here is the next sequence: "CGTCAAAGTTCAACTAAGGTTACGTAAAGCACGC"
0.789

And then "CCTACTCGGCCAAAAAGGTCATTGATGCCGATAA" , what is it?
1.1

Another sequence to look at: "AGAATGAGGTTACCAAAGTTCAGGGAAACGCTTG"
3.96

# iterate: "CCTACTGGGCCACTAAAGGTCATTGATTCAGTGA"
5.49

Entry "CGTCCAAGGTCAAAGGTCAATGAAGAGATGACGG" please
3.66

Same for "AGAATGGGGTTACCAAAGATCAGGGAAACGCTTG"
4.37

Cool, now "CCTTACGGGTCAAGGTTATAGCCCGGGTGGTACG"
1.8

Same question, "CCGAATAGGTTACGAGGGGGCATTCAGTGCGAAT" this time
2.73

Next up: "GATACAGGGTCGGCTAGAGGCCAGAGTATGGAAA"
-0.804

Query "AGAATGAGGTTACCAAAGGTCAGGGAAACGCTTG" next
4.16

Queued: "CCTAGTTGGTCAAGGTCACACCCGCTATAGGTAC"
2.17

# repeat for "TGTCAAAGTTCAAAGGTTACGTAAGTATCCACAC"
0.119

Would you mind doing "TCTAGTTGGTCTAAGGTCACACACTCGAAATGCG" as well?
2.2

Now the same for "AGAATGAGATTACCAAAGATCAGGGAAACGCTTG"
-0.34

Another: "ATCGAAAGGTCGACGAGGTGAGTAAACACCGTTT"
0.114

Now try "AAAACAGGGTCATCGTAGGCCAGAGTACGCACAG" .
4.38

How about "AGAATGAGGTTAAGTTCAGGGAAACAGAATACAT" ?
3.13

Again, but for "TCTCGGAGGAAACGAAAGGTCAGAGCTCGACATC"
1.21

And what about the sequence "CCTTAGGGGTCAAGGTTATAGCACGGGTGGTACG" ?
3.07

// next record "CAAACTAGGTCACCGAAAGGTCAAAGTCCGCATG"
8.72

And then "CAAACTAGGTCAAGAGGTCAAAGTTCGCTTCCCG" , what is it?
8.34

"GCTAGTTGGTCAGTAAAATGTCACACACCGGTCG" , same question.
0.762

Next up: "ACTTAGGGGTCAACGAGGTTATAGCACGCGTATA"
5.4

Let us now turn to "CTATGTGGGTTAAGGGGGTCATTCAGTTTGAAAG"
7.57

Similarly, "CAAACGAGGTCAAGAGGTCAAAGTCCGCTTCCCG" ?
6.04

Let us now turn to "CAAAATAGGTCACGAAAGGTCAAAGTCGAATGAC"
7.95

And for "AGTCAAAGTTCAGGACGACGTAACGTAAAGCACG" ?
-0.52

Subsequent entry: "TAGCCTAGGTCATTCAGGGGCAAGTATAGAAAGC"
1.93

Now the same for "CAGCATAGGTCAGGGCCAGTATAGGAGGAACGTT"
0.577

Param item: "TATACAAGGTCAAAGGCCAGAGTACGAATGTCGA"
2.91

Same again, this time with "CGTCAAACTTCAACTAAGGTAACGTAAAGCACGC"
0.0564

Moving on to the next sequence: "AGAACGAGGTCACGCTGAGTTGATAGCAGAGTAG"
6.78

And "CCAACTGGGCCAAAAAGGTCATTGATGCCGATAA" ?
4.24
